We begin with a simple list: items and their reported Mean Percent Inhibition of Control Specific Binding.
# TARGET OF ASSAY: kappa (KOP) (h) (Homo sapiens, UniProt P41145)
# Construct: expressed in transfected cells; host or cells: RBL cells
# Sequence (P41145 whole entry): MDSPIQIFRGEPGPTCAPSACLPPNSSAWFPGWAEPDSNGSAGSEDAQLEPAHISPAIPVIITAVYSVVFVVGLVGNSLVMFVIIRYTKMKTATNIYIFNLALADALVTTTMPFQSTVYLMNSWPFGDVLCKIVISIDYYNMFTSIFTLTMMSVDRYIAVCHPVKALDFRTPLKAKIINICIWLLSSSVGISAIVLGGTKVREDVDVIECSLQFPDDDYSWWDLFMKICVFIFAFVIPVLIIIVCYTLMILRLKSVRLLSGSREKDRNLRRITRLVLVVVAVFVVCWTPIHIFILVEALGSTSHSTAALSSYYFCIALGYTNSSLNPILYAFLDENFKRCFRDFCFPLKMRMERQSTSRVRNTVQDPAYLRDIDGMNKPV
# ASSAY INFO: Radioligand binding kappa (KOP) (h) (agonist radioligand), [^3H]U69593, RBL cells
# CONDITION SUMMARY: kappa (h) (KOP) (agonist radiolig.)
State just the number; it will be interpreted in %.

Consider the worked cases shown below.
# COMPOUND, READING
rows = [
    ("COCc1cc(CCN)c(OC)cc1Br", 11.4),
    ("COCc1cc(CCN)c(OC)cc1CC(C)C", 29.8),
    ("COCc1cc(CCN)c(O)cc1CC(C)C", 28.2),
]

Now for a further compound.
The compound COCCc1cc(CCN)c(OC)cc1Br [Compound 2CB-5ME, reference compound] , tested on kappa (KOP) (h) (Homo sapiens, UniProt P41145), showed Mean Percent Inhibition of Control Specific Binding of 11.2

----------
Each entry below carries its reported Mean Percent Inhibition of Control Specific Binding.
# TARGET OF ASSAY: H2 (h) (Homo sapiens)
# Construct: expressed in transfected cells; host or cells: CHO cells
# Sequence (P25021 whole entry): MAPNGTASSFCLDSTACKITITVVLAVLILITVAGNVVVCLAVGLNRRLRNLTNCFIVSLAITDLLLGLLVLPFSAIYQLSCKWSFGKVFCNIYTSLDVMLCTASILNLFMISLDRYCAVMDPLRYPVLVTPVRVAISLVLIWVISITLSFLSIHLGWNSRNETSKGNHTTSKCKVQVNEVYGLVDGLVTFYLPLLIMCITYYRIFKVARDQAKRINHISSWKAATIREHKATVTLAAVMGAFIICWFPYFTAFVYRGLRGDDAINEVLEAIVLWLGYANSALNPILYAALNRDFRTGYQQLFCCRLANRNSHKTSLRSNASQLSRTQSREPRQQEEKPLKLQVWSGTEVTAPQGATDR
# ASSAY INFO: Radioligand binding H2 (h) (antagonist radioligand), [^125I]APT, CHO cells
Could you give me the number in %? Just the number is fine.

# COMPOUND, READING
measured = [
    ("COCc1cc(CCN)c(OC)cc1CC(C)C", "−16.5"),
]

Mean Percent Inhibition of Control Specific Binding value, target or system H2 (h) (Homo sapiens), for COCc1cc(CCN)c(O)cc1CC(C)C : 12.5

// assay H2 (h) (Homo sapiens), entry COCCc1cc(CCN)c(OC)cc1Br [Compound 2CB-5ME, reference compound] , Mean Percent Inhibition of Control Specific Binding value = −0.6

The compound COCc1cc(CCN)c(OC)cc1Br on H2 (h) (Homo sapiens): Mean Percent Inhibition of Control Specific Binding was −14.7

----------
# TARGET OF ASSAY: delta (DOP) (h) (Homo sapiens)
# Construct: expressed in transfected cells; host or cells: Chem-1 RBL
# Sequence (P41143 whole entry): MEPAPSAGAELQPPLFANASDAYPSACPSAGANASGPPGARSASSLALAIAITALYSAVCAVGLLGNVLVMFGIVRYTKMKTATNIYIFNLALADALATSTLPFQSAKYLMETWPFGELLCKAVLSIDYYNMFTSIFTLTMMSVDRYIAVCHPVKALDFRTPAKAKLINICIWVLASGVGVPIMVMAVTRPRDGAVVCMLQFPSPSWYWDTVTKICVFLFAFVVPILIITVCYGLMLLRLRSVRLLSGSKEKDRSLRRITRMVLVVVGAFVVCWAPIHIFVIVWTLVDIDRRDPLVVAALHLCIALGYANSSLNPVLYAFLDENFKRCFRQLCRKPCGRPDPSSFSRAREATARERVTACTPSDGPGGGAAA
# ASSAY INFO: Radioligand binding delta (DOP) (h) (agonist radioligand), [^3H]DALE, Chem-1 RBL
# CONDITION SUMMARY: delta (DOP) (h) (agonist radiolig.)
MEASURED ENDPOINT: Mean Percent Inhibition of Control Specific Binding (%)
Form entry: value (%) — number only.

# MOLECULE, TARGET OF ASSAY, READING
data = [
    ("COCc1cc(CCN)c(OC)cc1CC(C)C", "delta (DOP) (h) (Homo sapiens)", 11.9),
    ("COCCc1cc(CCN)c(OC)cc1Br [Compound 2CB-5ME, reference compound]", "delta (DOP) (h) (Homo sapiens)", 9.7),
    ("COCc1cc(CCN)c(OC)cc1Br", "delta (DOP) (h) (Homo sapiens)", 8.5),
]

Value of Mean Percent Inhibition of Control Specific Binding reported for the molecule COCc1cc(CCN)c(O)cc1CC(C)C is 19.5

----------
# TARGET OF ASSAY: dopamine transporter(h) (Homo sapiens)
# Construct: expressed in transfected cells; host or cells: CHO cells
# Sequence (Q01959 whole entry): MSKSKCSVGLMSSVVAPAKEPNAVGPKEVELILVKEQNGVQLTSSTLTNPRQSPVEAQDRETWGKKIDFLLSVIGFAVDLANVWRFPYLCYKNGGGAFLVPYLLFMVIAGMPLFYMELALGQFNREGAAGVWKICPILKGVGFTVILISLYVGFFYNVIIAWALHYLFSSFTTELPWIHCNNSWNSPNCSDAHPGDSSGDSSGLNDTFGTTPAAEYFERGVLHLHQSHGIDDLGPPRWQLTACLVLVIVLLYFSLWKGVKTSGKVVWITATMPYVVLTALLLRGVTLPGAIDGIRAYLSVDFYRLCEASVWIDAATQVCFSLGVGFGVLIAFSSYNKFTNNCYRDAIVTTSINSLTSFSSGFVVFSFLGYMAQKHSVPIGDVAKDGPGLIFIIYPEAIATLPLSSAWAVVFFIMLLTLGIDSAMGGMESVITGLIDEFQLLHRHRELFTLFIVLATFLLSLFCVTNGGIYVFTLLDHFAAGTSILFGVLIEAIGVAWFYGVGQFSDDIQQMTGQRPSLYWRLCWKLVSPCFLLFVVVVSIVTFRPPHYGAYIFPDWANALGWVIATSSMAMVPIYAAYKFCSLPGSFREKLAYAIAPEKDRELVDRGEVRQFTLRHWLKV
# ASSAY INFO: Radioligand binding DA transporter (h) (antagonist radioligand), [^3H]BTCP, CHO cells
MEASURED ENDPOINT: Mean Percent Inhibition of Control Specific Binding (%)
A number alone suffices; assume %.

# COMPOUND, TARGET OF ASSAY, UNIT SPEC, READING
rows = [
    ("COCCc1cc(CCN)c(OC)cc1Br [Compound 2CB-5ME, reference compound]", "dopamine transporter(h) (Homo sapiens)", "%", 6.2),
    ("COCc1cc(CCN)c(OC)cc1CC(C)C", "dopamine transporter(h) (Homo sapiens)", "%", 7.7),
    ("COCc1cc(CCN)c(O)cc1CC(C)C", "dopamine transporter(h) (Homo sapiens)", "%", 22.3),
]

Form: compound = COCc1cc(CCN)c(OC)cc1Br ; Mean Percent Inhibition of Control Specific Binding = 10.7
